Test system: A549/ATCC NSCLC
Experimental Details: NCI-60 one-dose screen, 48 h (100 = growth as untreated, 0 = no growth, -100 = all killed)
Condition Details: 10 µM unless noted
About 83,000 compounds went through this panel and 20% of them were active in at least one assay; those are over-represented in the sample as a whole.
Readout: growth (%)

INSERT INTO measurements (molecule, target_entity, endpoint_unit, endpoint_result) VALUES
  ('O=C1c2cccc(NCCN=Cc3cc(O)ccc3O)c2C(=O)c2c(NCCN=Cc3cc(O)ccc3O)cccc21', 'A549/ATCC NSCLC', '%', -55.6),
  ('NC(=O)c1c(NC(=O)c2ccccc2)sc2c1CCC(=O)C2', 'A549/ATCC NSCLC', '%', 30),
  ('c1cnc2[nH]cc(-c3csc(-c4cn(CCCN5CCOCC5)c5ccccc45)n3)c2c1', 'A549/ATCC NSCLC', '%', 54.4),
  ('O=C(NNc1nccc(Nc2ccc(S(=O)(=O)Nc3ccncc3)cc2)n1)c1ccccc1', 'A549/ATCC NSCLC', '%', 96.8),
  ('C#CCOc1ccc2ncnc(Nc3ccc(NC(=O)CCl)cc3)c2c1', 'A549/ATCC NSCLC', '%', 18.7),
  ('CCOC(=O)c1c(C)nc2c(c1N)CC(=O)N2Cc1cc(F)cc(Cl)c1', 'A549/ATCC NSCLC', '%', 82.8),
  ('NC(=O)CCC(C(=O)O)N1C(=O)c2ccc(O)cc2C1=O (stereo not given)', 'A549/ATCC NSCLC', '%', 122),
  ('Cc1ccc2c3c(c(=O)[nH]c2c1)C1(C(C#N)=C(N)O3)c2cc(Br)ccc2-c2ccc(Br)cc21', 'A549/ATCC NSCLC', '%', -42.4),
  ('Oc1c(Cl)cc(Cl)c2ccc(Cn3cc(-c4ccc(C(F)(F)F)cc4)nn3)nc12', 'A549/ATCC NSCLC', '%', 96.1),
  ('CCCC(=O)NC(c1ccc2c(c1)OCO2)c1ccc2cccnc2c1O (stereo not given)', 'A549/ATCC NSCLC', '%', 20.8),
  ('C=CCn1c(SCC(=O)Nc2ccc(C(=O)/C=C/c3ccc(Cl)cc3)cc2)nnc1-c1cc(-c2ccc(S(N)(=O)=O)cc2)nc2ccccc12', 'A549/ATCC NSCLC', '%', 92.6),
  ('CCOC(=O)C(=Cc1cccc(Cl)c1)C(=O)OCC', 'A549/ATCC NSCLC', '%', 46.9),
  ('CN1CCN(c2ccc(NC(=O)c3nc4ccc5[nH]ncc5c4c4c3CCCC4)cc2C(F)(F)F)CC1', 'A549/ATCC NSCLC', '%', 60.2),
  ('OCCCC1CCN(C(Cc2ccccc2)c2ccccc2)CC1 (stereo not given)', 'A549/ATCC NSCLC', '%', 73.3),
  ('Nc1c(C(=O)Nc2ccccc2Cl)sc2nc3c(cc12)C(O)CCC3 (stereo not given)', 'A549/ATCC NSCLC', '%', 25.4),
  ('C=C1C(=O)O[C@H]2[C@H]1CC/C(COC(=O)CSCCSCC(=O)OC/C1=C/CC[C@@]3(C)O[C@H]3[C@H]3OC(=O)C(=C)[C@@H]3CC1)=C\CC[C@@]1(C)O[C@@H]21', 'A549/ATCC NSCLC', '%', 69.5),
  ('CN(C)CCCn1c2c(c3ncccc3c1=O)C(=O)c1ccccc1-2', 'A549/ATCC NSCLC', '%', 42),
  ('CCN1C(=O)N(CC)C2C1NN=c1s/c(=C\c3ccc(Cl)cc3Cl)c(=O)n12 (stereo not given)', 'A549/ATCC NSCLC', '%', 14.6),
  ('Cn1c(O)c(C=NCCN=Cc2c(O)n(C)c(=O)n(C)c2=O)c(=O)n(C)c1=O', 'A549/ATCC NSCLC', '%', 100),
  ('CCCCNc1ccc(C#N)c(OCCN(CC)CC)c1', 'A549/ATCC NSCLC', '%', 101);

Data provenance is PubChem BioAssay (NCI).
